- PROTOCOL: HUVEC growth inhibition – cell-based, human, primary screen (AID 575)
- CONDITION_INFO: HUVEC proliferation, CellTiter-Glo luminescence, 72 h; at 10 µM; active compounds read low
Binary call on viability with cut-off 90%: strictly below means yes, and equality or higher means no.

# MOLECULE, CLASS_ASSIGNMENT
records = [
    ("O=S(NCc1ccco1)C12CC3CC(CC(C3)C1)C2 (stereo not given)", "no"),
    ("COCCN1Cc2cccc(C(=O)Nc3cccnc3)c2C1=O", "no"),
    ("CNC(=O)c1c(O)c2cccc3c2n(c1=O)CC3", "no"),
    ("O=C(O)CN1C(=O)C2(OCCCO2)c2ccccc21", "no"),
    ("CCC(C(=O)O)n1c(C(F)(F)F)nc2ccccc21 (stereo not given)", "no"),
    ("Cc1cc2oc(=O)cc(C)c2c(=O)o1", "no"),
    ("O=C1CC(N2CCN(c3ccc(Cl)c(Cl)c3)CC2)C(=O)N1 (stereo not given)", "yes"),
    ("CC(=O)N(C(C)=O)c1cccc2c(N(C(C)=O)C(C)=O)cccc12", "no"),
    ("COc1ccc(OC)c(S(=O)(=O)N2c3ccccc3CC2C)c1 (stereo not given)", "yes"),
    ("Cc1c(NC(=O)C2(c3ccccc3)CCOCC2)c(=O)n(-c2ccccc2)n1C", "no"),
    ("CCc1[nH]nc2c1C(c1cccc(OC(=O)N3CCOCC3)c1)C(C#N)=C(N)O2 (stereo not given)", "no"),
    ("CCOC(=O)C1=C(C)N=C2SC(C)C(=O)N2C1c1cccc(F)c1 (stereo not given)", "yes"),
    ("CCOC(=O)CSC1=Nc2ccccc2C2=NC(CC(=O)NCc3ccc(OC)cc3)C(=O)N12 (stereo not given)", "yes"),
    ("Cc1noc(C)c1CSc1nnc(-c2ccncc2)n1-c1cccc(Cl)c1C", "yes"),
    ("Cc1cc2ncn(C(=O)c3c(-c4ccccc4)noc3C)c2cc1C", "yes"),
    ("CCOC(=O)c1c(-c2cccs2)csc1NC(=O)CCCC(=O)O", "yes"),
]
